The values you see were collected from patent US20170224836A1.

STUDY_SYSTEM: T1, hCDH6aa54-615 APPavi (human, UniProt P55285 54-615)
T1 sequence: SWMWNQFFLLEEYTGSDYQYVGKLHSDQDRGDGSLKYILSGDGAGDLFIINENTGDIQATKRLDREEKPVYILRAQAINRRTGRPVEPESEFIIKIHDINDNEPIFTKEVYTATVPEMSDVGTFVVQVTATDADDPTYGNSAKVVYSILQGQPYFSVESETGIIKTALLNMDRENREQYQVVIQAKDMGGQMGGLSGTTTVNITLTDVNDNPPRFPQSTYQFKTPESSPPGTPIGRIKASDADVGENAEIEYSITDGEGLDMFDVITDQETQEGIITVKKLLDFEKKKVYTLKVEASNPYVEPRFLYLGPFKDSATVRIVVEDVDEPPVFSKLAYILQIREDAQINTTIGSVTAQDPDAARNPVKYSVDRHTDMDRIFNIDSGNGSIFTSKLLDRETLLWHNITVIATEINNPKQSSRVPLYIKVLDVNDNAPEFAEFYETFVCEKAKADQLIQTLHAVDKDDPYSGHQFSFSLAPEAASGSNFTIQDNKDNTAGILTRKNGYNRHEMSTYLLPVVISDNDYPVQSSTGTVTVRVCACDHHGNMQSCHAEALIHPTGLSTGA
ASSAY_COMMENT: SPR binning
Exercise: state measured response of secondary antibody on primary antibody-CDH6 complex for each of the binders provided.
Give a plain numeric answer without units written out.

Quick one: give measured response of secondary antibody on primary antibody-CDH6 complex for NOV1132 (antibody, human IgG1, lambda, V domains shown) VH: QVQLQQSGPGLVKPSQTLSLTCAISGDSVSSQSAGWNWIRQSPSRGLEWLGRIYYRSKWYNDYAVSVKSRITINPDTSKNQFSLQLNSVTPEDTAVYYCAREKYTVSFYDFFDYWGQGTLVTVSS VL: SYELTQPLSVSVALGQTARITCSGDNIGSMTAHWYQQKPGQAPVLVIYDKNERPSGIPERFSGSNSGNTATLTISRAQAGDEADYYCQSWDDSYTSVVFGGGTKLTVLG
39.3

Report response of secondary antibody on primary antibody-CDH6 complex, nothing else, for this binder: NOV1126 (antibody, human IgG1, lambda, V domains shown) VH: EVQLLESGGGLVQPGGSLRLSCAASGFTFSDHAIDWVRQAPGKGLEWVSVIAGSGSITYYADSVKGRFTISRDNSKNTLYLQMNSLRAEDTAVYYCARDTGVYREYMDVWGQGTLVTVSS VL: SYELTQPLSVSVALGQTARITCSGDAIGTKFAHWYQQKPGQAPVLVIYYDHERPSGIPERFSGSNSGNTATLTISRAQAGDEADYYCYSRASSNLVFGGGTKLTVLG
56.6

Please report response of secondary antibody on primary antibody-CDH6 complex for the following binder: NOV0719 (antibody, human IgG1, kappa, V domains shown) VH: QVQLLESGGGLVQPGGSLRLSCAASGFTFSSHWVHWVRQAPGKGLEWVSVISYMGSSTYYADSVKGRFTISRDNSKNTLYLQMNSLRAEDTAVYYCARGSYDMAFDVWGQGTLVTVSS VL: DIQMTQSPSSLSASVGDRVTITCRASQSIVSYLNWYQQKPGKAPKLLIYDASSLQSGVPSRFSGSGSGTDFTLTISSLQPEDFATYYCQQSGSHSITFGQGTKVEIKR
46.9

Read the entry NOV1127 (antibody, human IgG1, kappa, V domains shown) VH: QVQLQQSGPGLVKPSQTLSLTCAISGDSVSSQSAAWNWIRQSPSRGLEWLGRIYYRSKWYNDYAVSVKSRITINPDTSKNQFSLQLNSVTPEDTAVYYCARERSYRDYFDYWGQGTLVTVSS VL: DIQMTQSPSSLSASVGDRVTITCRASQGIFTYLNWYQQKPGKAPKLLIYAASTLQSGVPSRFSGSGSGTDFTLTISSLQPEDFATYYCQQYYSTSLTFGQGTKVEIKR and write its reported response of secondary antibody on primary antibody-CDH6 complex.
36.7

Return reported response of secondary antibody on primary antibody-CDH6 complex. Input binder: NOV0710 (antibody, human IgG1, kappa, V domains shown) VH: QVQLLESGGGLVQPGGSLRLSCAASGFTFSSYAMSWVRQAPGKGLEWVSVIRSSGSSTYYADSVKGRFTISRDNSKNTLYLQMNSLRAEDTAVYYCARGGGYFDYWGQGTLVTVSS VL: DIQMTQSPSSLSASVGDRVTITCRASQSISLWLNWYQQKPGKAPKLLIYAASTLQSGVPSRFSGSGSGTDFTLTISSLQPEDFATYYCQQYYTSPYTFGQGTKVEIKR
32.7

Find the measured response of secondary antibody on primary antibody-CDH6 complex of NOV0712 (antibody, human IgG1, kappa, V domains shown) VH: QVQLLESGGGLVQPGGSLRLSCAASGFTFSSHGMHWVRQAPGKGLEWVSVISGSGSNTGYADSVKGRFTISRDNSKNTLYLQMNSLRAEDTAVYYCARQWGSYAFDSWGQGTLVTVSS VL: DIQMTQSPSSLSASVGDRVTITCRASQSISSYLNWYQQKPGKAPKLLIYAVSTLQSGVPSRFSGSGSGTDFTLTISSLQPEDFATYYCQQSGTFPPTTFGQGTKVEIKR and report it.
24.7
